tested on: MIA PaCa-2 (human pancreatic cancer); assay: cells; format: cell-based; details: Table 4; selectivity coefficient vs normal BALB/3T3 fibroblasts
reported.endpoint: SI MIA PaCa-2

CC[C@@H](C(=O)[C@@H](C)[C@@H](O)[C@H](C)[C@@H]1O[C@@H]([C@@H](CC)C(=O)O)CC[C@@H]1C)[C@H]1O[C@]2(C=C[C@@H](NC(=O)C(=O)NCCCc3ccccc3)[C@]3(CC[C@@](C)([C@H]4CC[C@](O)(CC)[C@H](C)O4)O3)O2)[C@H](C)C[C@@H]1C: 11.7
CC[C@@H](C(=O)[C@@H](C)[C@@H](O)[C@H](C)[C@@H]1O[C@@H]([C@@H](CC)C(=O)O)CC[C@@H]1C)[C@H]1O[C@]2(C=C[C@@H](NC(=O)c3ccccc3Cl)[C@]3(CC[C@@](C)([C@H]4CC[C@](O)(CC)[C@H](C)O4)O3)O2)[C@H](C)C[C@@H]1C: 10.6
CC[C@@H](C(=O)[C@@H](C)[C@@H](O)[C@H](C)[C@@H]1O[C@@H]([C@@H](CC)C(=O)O)CC[C@@H]1C)[C@H]1O[C@]2(C=C[C@@H](NC(=O)C(=O)NCCc3ccccc3)[C@]3(CC[C@@](C)([C@H]4CC[C@](O)(CC)[C@H](C)O4)O3)O2)[C@H](C)C[C@@H]1C: 13.7

Quick one: SI MIA PaCa-2 for "CC[C@@H](C(=O)[C@@H](C)[C@@H](O)[C@H](C)[C@@H]1O[C@@H]([C@@H](CC)C(=O)O)CC[C@@H]1C)[C@H]1O[C@]2(C=C[C@@H](NC(=O)C(=O)NCC3CC3)[C@]3(CC[C@@](C)([C@H]4CC[C@](O)(CC)[C@H](C)O4)O3)O2)[C@H](C)C[C@@H]1C" ?
7.4

* * *

test system: PFSK-1 (malignant primitive neuroectodermal tumour); test: In vitro cytotoxicity, SRB assay, PFSK-1; type: cell-based; conditions: selectivity coefficient vs normal BALB/3T3 cells
reported.endpoint: PFSK-1 SI
Provide a numeric answer; units are not to be included.

CC[C@@H](C(=O)[C@@H](C)[C@@H](O)[C@H](C)[C@@H]1O[C@@H]([C@@H](CC)C(=O)O)CC[C@@H]1C)[C@H]1O[C@]2(C=C[C@@H](NC(=O)Nc3ccc(F)cc3)[C@]3(CC[C@@](C)([C@H]4CC[C@](O)(CC)[C@H](C)O4)O3)O2)[C@H](C)C[C@@H]1C: 15.3
CC[C@@H](C(=O)[C@@H](C)[C@@H](O)[C@H](C)[C@@H]1O[C@@H]([C@@H](CC)C(=O)O)CC[C@@H]1C)[C@H]1O[C@]2(C=C[C@@H](NC(=S)NCc3ccccc3)[C@]3(CC[C@@](C)([C@H]4CC[C@](O)(CC)[C@H](C)O4)O3)O2)[C@H](C)C[C@@H]1C: 2.7

Now, please, on to the next molecule.
Could you share which PFSK-1 SI value was measured for "CC[C@@H](C(=O)[C@@H](C)[C@@H](O)[C@H](C)[C@@H]1O[C@@H]([C@@H](CC)C(=O)O)CC[C@@H]1C)[C@H]1O[C@]2(C=C[C@@H](NC(=O)Nc3ccccc3)[C@]3(CC[C@@](C)([C@H]4CC[C@](O)(CC)[C@H](C)O4)O3)O2)[C@H](C)C[C@@H]1C" ?
18.4

* * *

Reported PFSK-1 SI values are given for each entry in this list.
system: PFSK-1 (malignant primitive neuroectodermal tumour); assay: In vitro cytotoxicity, SRB assay, PFSK-1; type: cell-based; settings: selectivity coefficient vs normal BALB/3T3 cells
Write the number on its own, no unit after it.

Here is how some compounds turned out for PFSK-1 SI.
CC[C@@H](C(=O)[C@@H](C)[C@@H](O)[C@H](C)[C@@H]1O[C@@H]([C@@H](CC)C(=O)O)CC[C@@H]1C)[C@H]1O[C@]2(C=C[C@@H](NC(=O)NC3CCCCC3)[C@]3(CC[C@@](C)([C@H]4CC[C@](O)(CC)[C@H](C)O4)O3)O2)[C@H](C)C[C@@H]1C: 10.5
CC[C@@H](C(=O)[C@@H](C)[C@@H](O)[C@H](C)[C@@H]1O[C@@H]([C@@H](CC)C(=O)O)CC[C@@H]1C)[C@H]1O[C@]2(C=C[C@@H](NC(=O)NCc3ccccc3)[C@]3(CC[C@@](C)([C@H]4CC[C@](O)(CC)[C@H](C)O4)O3)O2)[C@H](C)C[C@@H]1C: 6.3

Continue with the next compound.
What does the data say about its PFSK-1 SI? Entry: "CC[C@@H](C(=O)[C@@H](C)[C@@H](O)[C@H](C)[C@@H]1O[C@@H]([C@@H](CC)C(=O)O)CC[C@@H]1C)[C@H]1O[C@]2(C=C[C@@H](NC(=S)Nc3cc(Cl)cc(Cl)c3)[C@]3(CC[C@@](C)([C@H]4CC[C@](O)(CC)[C@H](C)O4)O3)O2)[C@H](C)C[C@@H]1C"
31.6

* * *

Listed here: items and their measured IC50.
test system: KG-1 (human acute myeloid leukaemia); experiment: In vitro cytotoxicity, MTT assay, KG-1; format: cell-based; conditions: Homo sapiens; 72 h with compound, MTT; n/a = non-active compound
Write down the numeric answer in nM and omit the unit.

Completed entries (count: 2):
CC[C@@H](C(=O)[C@@H](C)[C@@H](O)[C@H](C)[C@@H]1O[C@@H]([C@@H](CC)C(=O)O)CC[C@@H]1C)[C@H]1O[C@]2(C=C[C@@H](NC(=S)Nc3cc(Cl)cc(Cl)c3)[C@]3(CC[C@@](C)([C@H]4CC[C@](O)(CC)[C@H](C)O4)O3)O2)[C@H](C)C[C@@H]1C: 6.44
CC[C@@H](C(=O)[C@@H](C)[C@@H](O)[C@H](C)[C@@H]1O[C@@H]([C@@H](CC)C(=O)O)CC[C@@H]1C)[C@H]1O[C@]2(C=C[C@@H](NC(=O)NCc3ccc(F)cc3)[C@]3(CC[C@@](C)([C@H]4CC[C@](O)(CC)[C@H](C)O4)O3)O2)[C@H](C)C[C@@H]1C: 30.6

Turning now to a further compound:
Provide the documented IC50 with KG-1 (human acute myeloid leukaemia) as the system for "CC[C@@H](C(=O)[C@@H](C)[C@@H](O)[C@H](C)[C@@H]1O[C@@H]([C@@H](CC)C(=O)O)CC[C@@H]1C)[C@H]1O[C@]2(C=C[C@@H](NC(=S)NCCCSC)[C@]3(CC[C@@](C)([C@H]4CC[C@](O)(CC)[C@H](C)O4)O3)O2)[C@H](C)C[C@@H]1C"
39.2

* * *

tested on: MV-4-11 (human biphenotypic leukaemia); test: In vitro cytotoxicity, MTT assay, MV-4-11; type: cell-based
reported.endpoint: SI MV4-11

CC[C@@H](C(=O)[C@@H](C)[C@@H](O)[C@H](C)[C@@H]1O[C@@H]([C@@H](CC)C(=O)O)CC[C@@H]1C)[C@H]1O[C@]2(C=C[C@@H](NC(=O)OCC(F)(F)F)[C@]3(CC[C@@](C)([C@H]4CC[C@](O)(CC)[C@H](C)O4)O3)O2)[C@H](C)C[C@@H]1C: 177.2

Now look at this one.
Need SI MV4-11, item "CC[C@@H](C(=O)[C@@H](C)[C@@H](O)[C@H](C)[C@@H]1O[C@@H]([C@@H](CC)C(=O)O)CC[C@@H]1C)[C@H]1O[C@]2(C=C[C@@H](NC(=O)C(=O)NCc3cccnc3)[C@]3(CC[C@@](C)([C@H]4CC[C@](O)(CC)[C@H](C)O4)O3)O2)[C@H](C)C[C@@H]1C"
12.6

* * *

# SI A2780Cis annotations
system: A2780Cis (cisplatin-resistant human ovarian cancer); assay: In vitro cytotoxicity, SRB assay, A2780Cis; assay type: cell-based
Form rule: numeric answer, no unit written next to it.

CC[C@@H](C(=O)[C@@H](C)[C@@H](O)[C@H](C)[C@@H]1O[C@@H]([C@@H](CC)C(=O)O)CC[C@@H]1C)[C@H]1O[C@]2(C=C[C@@H](NC(=O)C(Cl)Cl)[C@]3(CC[C@@](C)([C@H]4CC[C@](O)(CC)[C@H](C)O4)O3)O2)[C@H](C)C[C@@H]1C: 26.9

Param item = "CC[C@@H](C(=O)[C@@H](C)[C@@H](O)[C@H](C)[C@@H]1O[C@@H]([C@@H](CC)C(=O)O)CC[C@@H]1C)[C@H]1O[C@]2(C=C[C@@H](NC(=O)N3CCN(C)CC3)[C@]3(CC[C@@](C)([C@H]4CC[C@](O)(CC)[C@H](C)O4)O3)O2)[C@H](C)C[C@@H]1C" ; retrieve measured SI A2780Cis.
10.6

* * *

test system: A375 (human melanoma); assay: In vitro cytotoxicity, SRB assay, A375; format: cell-based; settings: 72 h with compound, SRB; n/a = non-active compound; read-out: A375 IC50
reported.endpoint: IC50 (nM)
Quick reminder: number only, in nM, skip the unit.

GET /values?readout=IC50&item= N.N.[Cl][Pt][Cl] [Cisplatin, cisplatin, reference compound]
410
